target.of.assay: [MCL-1]-[compound of formula (I)]-[CRBN/DDB1] complex (Homo sapiens, UniProt Q07820+Q96SW2)
Sequence (Q07820 whole entry): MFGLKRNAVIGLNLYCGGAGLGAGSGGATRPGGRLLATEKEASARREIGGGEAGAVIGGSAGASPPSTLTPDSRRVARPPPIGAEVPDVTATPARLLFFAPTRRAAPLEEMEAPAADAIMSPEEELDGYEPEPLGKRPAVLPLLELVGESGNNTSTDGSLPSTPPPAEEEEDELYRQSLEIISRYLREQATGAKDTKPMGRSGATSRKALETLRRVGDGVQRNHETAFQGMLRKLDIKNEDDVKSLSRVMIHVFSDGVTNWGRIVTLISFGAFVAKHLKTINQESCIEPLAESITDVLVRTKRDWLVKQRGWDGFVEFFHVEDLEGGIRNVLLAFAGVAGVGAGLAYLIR
Sequence (Q96SW2 whole entry): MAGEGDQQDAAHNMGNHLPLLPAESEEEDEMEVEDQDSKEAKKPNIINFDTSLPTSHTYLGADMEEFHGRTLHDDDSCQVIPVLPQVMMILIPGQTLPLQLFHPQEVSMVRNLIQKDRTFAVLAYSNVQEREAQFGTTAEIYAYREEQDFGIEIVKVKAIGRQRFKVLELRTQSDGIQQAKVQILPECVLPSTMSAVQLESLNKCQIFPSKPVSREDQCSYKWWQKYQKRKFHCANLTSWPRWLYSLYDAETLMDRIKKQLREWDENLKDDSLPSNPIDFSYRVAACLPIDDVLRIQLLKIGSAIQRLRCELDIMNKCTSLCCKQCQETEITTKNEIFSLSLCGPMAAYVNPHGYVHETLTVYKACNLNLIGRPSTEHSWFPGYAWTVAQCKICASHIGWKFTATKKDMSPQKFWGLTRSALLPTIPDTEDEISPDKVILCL
Sequence (Q16531 whole entry partner): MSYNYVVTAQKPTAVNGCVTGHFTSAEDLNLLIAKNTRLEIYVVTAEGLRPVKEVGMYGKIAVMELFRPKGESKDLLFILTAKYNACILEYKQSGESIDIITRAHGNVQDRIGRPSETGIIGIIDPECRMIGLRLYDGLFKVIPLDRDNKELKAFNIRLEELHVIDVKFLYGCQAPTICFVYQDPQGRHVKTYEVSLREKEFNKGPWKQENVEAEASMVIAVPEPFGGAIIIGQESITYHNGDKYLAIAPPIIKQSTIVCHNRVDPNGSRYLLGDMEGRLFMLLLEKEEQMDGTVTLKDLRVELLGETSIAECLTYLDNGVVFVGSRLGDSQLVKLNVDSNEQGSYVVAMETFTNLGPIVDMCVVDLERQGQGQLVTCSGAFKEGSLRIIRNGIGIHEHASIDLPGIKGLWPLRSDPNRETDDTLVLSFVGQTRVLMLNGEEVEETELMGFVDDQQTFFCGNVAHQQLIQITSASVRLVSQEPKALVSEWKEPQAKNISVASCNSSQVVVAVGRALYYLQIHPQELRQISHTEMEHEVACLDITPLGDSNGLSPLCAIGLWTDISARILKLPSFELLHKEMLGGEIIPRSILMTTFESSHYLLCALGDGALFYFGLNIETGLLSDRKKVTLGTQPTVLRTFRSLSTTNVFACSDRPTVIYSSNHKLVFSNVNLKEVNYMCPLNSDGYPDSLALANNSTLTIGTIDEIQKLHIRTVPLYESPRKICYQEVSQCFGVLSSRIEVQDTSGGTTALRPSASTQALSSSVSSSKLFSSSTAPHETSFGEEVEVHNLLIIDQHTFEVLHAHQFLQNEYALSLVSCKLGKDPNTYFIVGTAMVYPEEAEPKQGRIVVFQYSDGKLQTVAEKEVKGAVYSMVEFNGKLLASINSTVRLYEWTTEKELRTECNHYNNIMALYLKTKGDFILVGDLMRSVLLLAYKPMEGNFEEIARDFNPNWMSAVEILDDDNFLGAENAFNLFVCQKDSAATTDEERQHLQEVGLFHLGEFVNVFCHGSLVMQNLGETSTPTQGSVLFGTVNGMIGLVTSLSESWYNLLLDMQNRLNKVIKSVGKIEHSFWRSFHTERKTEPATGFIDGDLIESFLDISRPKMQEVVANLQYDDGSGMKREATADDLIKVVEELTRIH
measurement.notes: HTRF ternary complex assay
Format: binding
settings: ternary complex formation; read-out: HTRF ternary complex Average pEC50 by molecule (converted)
Experimental: The effect of the bifunctional compounds of the invention on the formation of a ternary complex composed of [MCL-1]-[compound of formula (I)]-[CRBN/DDB1] was investigated. […] The read-out was performed with plate reader (Pherastar, BMG Labtech) in time resolved fluorescence mode. […]
readout.kind: EC50

Reported EC50 ( Cc1nn(C)c(C)c1-c1c(Cl)ccc2c(CCCOc3cccc4cc(F)ccc34)c(C(=O)O)n(CCN3CCN(C(=O)CSc4cccc5c4CN(C4CCC(=O)NC4=O)C5=O)CC3)c12 (stereo not shown) [Compound 322] ) = < 100 nM

EC50 reported for this compound Cc1cc(OCCCc2c(C(=O)NS(=O)(=O)CCNC(=O)CCOCCOCCNc3cccc4c3C(=O)N(C3CCC(=O)NC3=O)C4=O)n(C)c3c(-c4c(C)nn(C)c4C)c(Cl)ccc23)cc(C)c1Cl (stereo not shown) [Compound 252] : < 100 nM

The recorded EC50 for Cc1nn(C)c(C)c1-c1c(Cl)ccc2c(CCCOc3cccc4cc(F)ccc34)c(C(=O)O)n(CCN3CCC4CN(C(=O)COc5cccc6c5CN(C5CCC(=O)NC5=O)C6=O)CC43)c12 (stereo not shown) [Compound 301] is < 10 nM

Proceeding to the next compound to report its EC50.
Cc1nn(C)c(C)c1-c1c(Cl)ccc2c(CCCOc3cccc4cc(F)ccc34)c(C(=O)O)n(CCCCN(C)C(=O)COc3cccc4c3CN(C3CCC(=O)NC3=O)C4=O)c12 (stereo not shown) [Compound 326] has a reported EC50 of < 10 nM

* * *

target.of.assay: [MCL-1]-[compound of formula (I)]-[CRBN/DDB1] complex (Homo sapiens, UniProt Q07820+Q96SW2)
measurement.notes: HTRF ternary complex assay
Format: binding
settings: ternary complex formation; read-out: HTRF ternary complex Average pEC50 by molecule (converted)
readout.kind: EC50

// below: answered compounds
Reported EC50 of Cc1nn(C)c(C)c1-c1c(Cl)ccc2c(CCCOc3cccc4cc(F)ccc34)c(C(=O)O)n(CCCCCN(C)C(=O)COc3cccc4c3CN(C3CCC(=O)NC3=O)C4=O)c12 (stereo not shown) : < 100 nM

For reference, reported EC50 for Cc1nn(C)c(C)c1-c1c(Cl)ccc2c(CCCOc3cccc4cc(F)ccc34)c(C(=O)O)n(CCN3CC4(CCN(C(=O)COc5cccc6c5CN(C5CCC(=O)NC5=O)C6=O)C4)C3)c12 (stereo not shown) stands at < 100 nM

According to the records, this compound Cc1nc2cc(OCC(=O)N3CCN(CCn4c(C(=O)O)c(CCCOc5cccc6cc(F)ccc56)c5ccc(Cl)c(-c6c(C)nn(C)c6C)c54)CC3)ccc2cc1C1CCC(=O)NC1=O (stereo not shown) displays EC50 of < 100 nM

Lab note: Cc1nn(C)c(C)c1-c1c(Cl)ccc2c(CCCOc3cccc4ccccc34)c(C(=O)O)n(CCN3CCC(NC(=O)COc4cccc5c4CN(C4CCC(=O)NC4=O)C5=O)CC3)c12 (stereo not shown) gave EC50 of < 100 nM

For Cc1nn(C)c(C)c1-c1c(Cl)ccc2c(CCCOc3cccc4cc(F)ccc34)c(C(=O)O)n(CCCNC(=O)Cn3c(C)nc4c(C(=O)NC5CCC(=O)NC5=O)cccc43)c12 (stereo not shown) the compound record lists EC50 as < 10 nM

More entries:
compound Cc1nc2cc(NCC(=O)N3CCN(CCn4c(C(=O)O)c(CCCOc5cccc6cc(F)ccc56)c5ccc(Cl)c(-c6c(C)nn(C)c6C)c54)CC3)ccc2cc1C1CCC(=O)NC1=O (stereo not shown) , EC50 observed: < 10 nM

The recorded EC50 for entry Cc1nn(C)c(C)c1-c1c(Cl)ccc2c(CCCOc3cccc4cc(F)ccc34)c(C(=O)O)n(CCN(C)CCN(C)C(=O)COc3cccc4c3CN(C3CCC(=O)NC3=O)C4=O)c12 (stereo not shown) equals < 10 nM

Reported EC50 ( O=C1CCC(N2Cc3c(OCC(=O)N4CCN(CCn5c(C(=O)O)c(CCCOc6cccc7cc(F)ccc67)c6ccc(Cl)c(-c7cnn8cccnc78)c65)CC4)cccc3C2=O)C(=O)N1 (stereo not shown) ) = < 100 nM

For this compound ( Cc1nn(C)c(C)c1-c1c(Cl)ccc2c(CCCOc3cccc4cc(F)ccc34)c(C(=O)O)n(CCN3CCN(C4CN(c5cc6c(cc5F)C(=O)N(C5CCC(=O)NC5=O)C6=O)C4)CC3)c12 (stereo not shown) ), measured EC50 is < 10 nM

For reference, reported EC50 for Cc1nn(C)c(C)c1-c1c(Cl)ccc2c(CCCOc3cccc4cc(F)ccc34)c(C(=O)O)n(CCN3CCC(C(=O)N4CCN(c5cc6c(cc5F)C(=O)N(C5CCC(=O)NC5=O)C6=O)CC4)CC3)c12 (stereo not shown) stands at < 10 nM
